assayed system: cannabinoid CB1 (Homo sapiens)
Sequence (P21554 whole entry): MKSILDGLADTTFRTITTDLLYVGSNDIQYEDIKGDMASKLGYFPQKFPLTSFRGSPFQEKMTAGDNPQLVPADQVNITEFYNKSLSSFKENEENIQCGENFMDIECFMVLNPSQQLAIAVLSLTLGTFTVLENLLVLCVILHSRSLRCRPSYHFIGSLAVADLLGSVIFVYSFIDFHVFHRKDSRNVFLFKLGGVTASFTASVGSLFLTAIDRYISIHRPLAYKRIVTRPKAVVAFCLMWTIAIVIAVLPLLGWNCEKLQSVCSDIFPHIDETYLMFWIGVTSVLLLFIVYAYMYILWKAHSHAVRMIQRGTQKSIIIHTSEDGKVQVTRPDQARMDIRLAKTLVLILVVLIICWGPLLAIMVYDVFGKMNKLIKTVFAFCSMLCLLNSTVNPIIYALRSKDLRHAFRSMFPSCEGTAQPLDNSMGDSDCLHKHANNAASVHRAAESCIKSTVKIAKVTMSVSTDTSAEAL
recorded metric: Ki

{"compound": "O=C(NC1CCCC1)C1CCC(c2ccc(Cl)cc2)=C(c2ccc(Cl)cc2)C1 (stereo not shown) [Compound 180]", "observed result": "1 to 10 nM"}
